Hey, just so you know, these numbers are from ChEMBL document CHEMBL1155021.

- target_of_assay: Protein kinase C zeta type (Homo sapiens)
- Sequence (Q05513 whole entry): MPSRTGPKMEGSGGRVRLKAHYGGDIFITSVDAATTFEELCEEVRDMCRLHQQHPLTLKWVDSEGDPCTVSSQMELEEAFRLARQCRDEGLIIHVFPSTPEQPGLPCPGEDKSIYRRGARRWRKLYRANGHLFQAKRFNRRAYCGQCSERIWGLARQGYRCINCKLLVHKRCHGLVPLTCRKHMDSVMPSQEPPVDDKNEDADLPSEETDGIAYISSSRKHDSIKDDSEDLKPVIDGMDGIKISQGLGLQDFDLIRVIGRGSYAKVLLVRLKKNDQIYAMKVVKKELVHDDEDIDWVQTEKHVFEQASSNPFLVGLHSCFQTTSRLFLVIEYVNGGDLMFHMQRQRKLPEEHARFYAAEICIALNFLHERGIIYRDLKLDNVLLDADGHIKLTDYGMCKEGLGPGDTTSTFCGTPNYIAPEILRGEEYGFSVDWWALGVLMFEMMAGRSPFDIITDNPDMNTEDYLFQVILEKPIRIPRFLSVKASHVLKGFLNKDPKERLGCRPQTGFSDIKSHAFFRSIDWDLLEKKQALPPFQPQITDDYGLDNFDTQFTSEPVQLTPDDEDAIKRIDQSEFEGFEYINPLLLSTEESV
pIC50: −log10 of the molar value. Structures can show the parent of a compound that is named as a salt.
measured_property: pIC50

{"compound": "CC(C)C1(CC[C@@H](C)[C@H]2CC[C@@]3(C)[C@@H]4C[C@H](OS(=O)(=O)O)[C@H]5[C@@H](O)[C@H](OS(=O)(=O)O)[C@@H](OS(=O)(=O)O)C[C@]5(C)C4=CC[C@]23C)CC1C (some centres undefined) [TOPSENTIASTEROL SULFATE E]", "measured_property": "pIC50", "recorded_value": 5.92}
{"compound": "C=C(C)C(C)(C)C(C)CC[C@@H](C)[C@H]1CC[C@@]2(C)[C@@H]3C[C@H](OS(=O)(=O)O)[C@H]4[C@@H](O)[C@H](OS(=O)(=O)O)[C@@H](OS(=O)(=O)O)C[C@]4(C)C3=CC[C@]12C (some centres undefined) [SPHECIOSTEROL SULFATE C]", "measured_property": "pIC50", "recorded_value": 6.96}
{"compound": "C=C(C)C(CC[C@@H](C)[C@H]1CC[C@@]2(C)[C@@H]3C[C@H](OS(=O)(=O)O)[C@H]4[C@@H](O)[C@H](OS(=O)(=O)O)[C@@H](OS(=O)(=O)O)C[C@]4(C)C3=CC[C@]12C)C(C)C (some centres undefined) [SPHECIOSTEROL SULFATE B]", "measured_property": "pIC50", "recorded_value": 6.28}
{"compound": "C=C(C)C(CC)CC[C@@H](C)[C@H]1CC[C@@]2(C)[C@@H]3C[C@H](OS(=O)(=O)O)[C@H]4[C@@H](O)[C@H](OS(=O)(=O)O)[C@@H](OS(=O)(=O)O)C[C@]4(C)C3=CC[C@]12C (some centres undefined) [SPHECIOSTEROL SULFATE A]", "measured_property": "pIC50", "recorded_value": 5.80}
